# target_under_test: PRMT5 (Homo sapiens, UniProt O14744)
# Construct: purchased Viva (custom protein)
# Sequence (O14744 whole entry): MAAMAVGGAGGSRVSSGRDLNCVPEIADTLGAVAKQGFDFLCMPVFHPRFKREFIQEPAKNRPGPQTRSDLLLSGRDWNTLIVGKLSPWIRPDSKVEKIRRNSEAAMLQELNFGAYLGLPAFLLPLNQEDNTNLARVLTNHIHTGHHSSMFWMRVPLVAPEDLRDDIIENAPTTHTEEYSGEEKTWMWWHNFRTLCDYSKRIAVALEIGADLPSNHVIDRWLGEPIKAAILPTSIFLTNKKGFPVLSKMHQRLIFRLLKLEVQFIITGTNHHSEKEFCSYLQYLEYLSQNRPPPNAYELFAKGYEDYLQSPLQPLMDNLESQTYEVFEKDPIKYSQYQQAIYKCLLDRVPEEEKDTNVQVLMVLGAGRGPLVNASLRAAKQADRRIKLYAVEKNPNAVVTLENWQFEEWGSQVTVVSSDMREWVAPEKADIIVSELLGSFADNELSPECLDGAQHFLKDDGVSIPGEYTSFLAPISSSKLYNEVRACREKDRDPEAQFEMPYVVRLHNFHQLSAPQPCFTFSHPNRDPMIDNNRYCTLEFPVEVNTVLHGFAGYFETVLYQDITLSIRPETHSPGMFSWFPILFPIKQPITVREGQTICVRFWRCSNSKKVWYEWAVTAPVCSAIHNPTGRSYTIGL
# Sequence (Q9BQA1 whole entry partner): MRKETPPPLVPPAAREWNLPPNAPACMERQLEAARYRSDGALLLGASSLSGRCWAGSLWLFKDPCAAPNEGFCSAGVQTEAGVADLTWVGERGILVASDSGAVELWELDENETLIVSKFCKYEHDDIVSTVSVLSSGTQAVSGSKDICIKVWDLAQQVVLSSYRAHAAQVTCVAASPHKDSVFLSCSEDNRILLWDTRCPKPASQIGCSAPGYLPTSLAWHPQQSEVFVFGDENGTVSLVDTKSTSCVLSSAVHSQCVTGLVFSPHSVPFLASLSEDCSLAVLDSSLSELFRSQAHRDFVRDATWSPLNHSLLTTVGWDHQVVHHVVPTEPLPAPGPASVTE
# test_summary: PRMT5 biochemical IC50 assay with no cofactor
# condition_context: PRMT5, no cofactor; read-out: No Cofactor/rel IC50
measured_property: IC50

Solved cases (3 shown):
INSERT INTO assay_data (compound, target_under_test, recorded_result) VALUES
  ('C[C@H]1CC[C@H](c2cccc(Cl)c2)N(C(=O)C(=O)Nc2cncc(C(N)=O)c2)C1 (single isomer, unassigned) [Compound 440]', 'PRMT5 (Homo sapiens, UniProt O14744)', '0.05 to 0.5 µM'),
  ('CCc1cc(NC(=O)C(=O)N2C[C@H](C)CC[C@H]2c2ccc(N)nc2)cnc1N (single isomer, unassigned) [Compound 856]', 'PRMT5 (Homo sapiens, UniProt O14744)', '> 0.5 µM'),
  ('CCc1cc(NC(=O)C(=O)N2C[C@@H](C)C(F)(F)C[C@@H]2c2ccc(F)c(F)c2)cnc1N (single isomer, unassigned) [Compound 721]', 'PRMT5 (Homo sapiens, UniProt O14744)', '< 0.05 µM');

QUERY: I am curious: what IC50 value has been reported for CNc1nc2cc([C@@H]3CC[C@@H](C)CN3C(=O)C(=O)Nc3cnc(C)c(C)c3)ccc2s1 (racemic) [Compound 828] ?
RESULT: 0.05 to 0.5 µM

QUERY: Cool, now Cc1cc(NC(=O)C(=O)N2C[C@H](C)CC[C@H]2c2cccc(S(N)(=O)=O)c2)cnc1N (racemic) [Compound 688]
RESULT: 0.05 to 0.5 µM

QUERY: Cool, now [H][C@@]1([C@]2([H])C[C@]3(C[C@H](O)C3)C2)CC[C@@H](C)CN1C(=O)C(=O)Nc1cnc(N)c(C)c1 (single isomer, unassigned) [Compound 769]
RESULT: > 0.5 µM
